B1: NLV2 TCR alpha chain (CDR3α only) (parent)
chain: AGPMKTSYDKVI

- Variants of: B1
- METHOD: T-Switch: Jurkat TCRβ−/− cells expressing a CDR3 saturation-mutagenesis library, stained with two peptide-HLA-A*02:01 tetramers (original and novel peptide) plus anti-CD3, FACS-sorted into four gates, gDNA sequenced
- EXPERIMENTAL_PARAMETERS: with both tetramers (double-negative gate, binds neither): HLA-A*02:01 with … and with …, tetramers 1 µg/mL, 30 min on ice, SP, DP and SW gates expanded about 10 days between rounds ('two to three rounds of selection' in the Methods), gate DN: OPPOSITE: higher = more of the variant in the gate that binds neither peptide = LESS binding (or no expression; inferred). Fold enrichment of the CDR3 variant in one FACS gate of a two-tetram, unresolved parent, parent is a CDR3 fragment, scale: fold enrichment, numbering: sequential-on-construct, sequence starts at 1
Each entry below carries its recorded enrichment.

Below, 3 variants whose answers are already recorded.
[…] (CDR3 as printed); D9N derived by comparing it with the table's wild-type CDR3 AGPMKTSYDKVI :: 1.01
[…] (CDR3 as printed); K5L derived by comparing it with the table's wild-type CDR3 AGPMKTSYDKVI :: 0.992
[…] (CDR3 as printed); S7Y derived by comparing it with the table's wild-type CDR3 AGPMKTSYDKVI :: 0.999

Problem: Please indicate enrichment recorded for […] (CDR3 as printed); G2A derived by comparing it with the table's wild-type CDR3 AGPMKTSYDKVI
Result: 0.977

Problem: Please indicate enrichment recorded for […] (CDR3 as printed); P3K derived by comparing it with the table's wild-type CDR3 AGPMKTSYDKVI
Result: 1.01

Problem: Please indicate enrichment recorded for […] (CDR3 as printed); Y8W derived by comparing it with the table's wild-type CDR3 AGPMKTSYDKVI
Result: 1.01

Problem: Please indicate enrichment recorded for […] (CDR3 as printed); K10S derived by comparing it with the table's wild-type CDR3 AGPMKTSYDKVI
Result: 1.01

Problem: Please indicate enrichment recorded for […] (CDR3 as printed); S7C derived by comparing it with the table's wild-type CDR3 AGPMKTSYDKVI
Result: 0.877

Problem: Please indicate enrichment recorded for […] (CDR3 as printed); K10I derived by comparing it with the table's wild-type CDR3 AGPMKTSYDKVI
Result: 1.1

Problem: Please indicate enrichment recorded for […] (CDR3 as printed); I12Y derived by comparing it with the table's wild-type CDR3 AGPMKTSYDKVI
Result: 1.06

Problem: Please indicate enrichment recorded for […] (CDR3 as printed); G2N derived by comparing it with the table's wild-type CDR3 AGPMKTSYDKVI
Result: 0.848

Problem: Please indicate enrichment recorded for […] (CDR3 as printed); K5D derived by comparing it with the table's wild-type CDR3 AGPMKTSYDKVI
Result: 0.812

Problem: Please indicate enrichment recorded for […] (CDR3 as printed); Y8E derived by comparing it with the table's wild-type CDR3 AGPMKTSYDKVI
Result: 0.485

Problem: Please indicate enrichment recorded for […] (CDR3 as printed); P3I derived by comparing it with the table's wild-type CDR3 AGPMKTSYDKVI
Result: 1.09

Problem: Please indicate enrichment recorded for […] (CDR3 as printed); T6A derived by comparing it with the table's wild-type CDR3 AGPMKTSYDKVI
Result: 0.82

Problem: Please indicate enrichment recorded for […] (CDR3 as printed); D9L derived by comparing it with the table's wild-type CDR3 AGPMKTSYDKVI
Result: 0.93

Problem: Please indicate enrichment recorded for […] (CDR3 as printed); K5C derived by comparing it with the table's wild-type CDR3 AGPMKTSYDKVI
Result: 1.03

Problem: Please indicate enrichment recorded for […] (CDR3 as printed); Y8C derived by comparing it with the table's wild-type CDR3 AGPMKTSYDKVI
Result: 1.27

Problem: Please indicate enrichment recorded for […] (CDR3 as printed); A1L derived by comparing it with the table's wild-type CDR3 AGPMKTSYDKVI
Result: 0.94

Problem: Please indicate enrichment recorded for […] (CDR3 as printed); K10V derived by comparing it with the table's wild-type CDR3 AGPMKTSYDKVI
Result: 1.38

Problem: Please indicate enrichment recorded for […] (CDR3 as printed); K10P derived by comparing it with the table's wild-type CDR3 AGPMKTSYDKVI
Result: 0.876

Problem: Please indicate enrichment recorded for […] (CDR3 as printed); Y8I derived by comparing it with the table's wild-type CDR3 AGPMKTSYDKVI
Result: 1.11

Problem: Please indicate enrichment recorded for […] (CDR3 as printed); G2S derived by comparing it with the table's wild-type CDR3 AGPMKTSYDKVI
Result: 1.02

Problem: Please indicate enrichment recorded for […] (CDR3 as printed); K5N derived by comparing it with the table's wild-type CDR3 AGPMKTSYDKVI
Result: 1.12

Problem: Please indicate enrichment recorded for […] (CDR3 as printed); K5E derived by comparing it with the table's wild-type CDR3 AGPMKTSYDKVI
Result: 0.392

These data points were gathered from paper PMC13397619.
